Data provenance is ChEMBL document CHEMBL3301361.

Test protocol: physchem
Experimental context: octan-1-ol/water, pH 7.4, LogD7.4
Attribute measured: logD
Would you mind answering with just the numeric figure?

Data request: Entry COc1ccc([C@]2(O)CC[C@H](N3CC[C@@H](NC(=O)CNC(=O)c4cccc(C(F)(F)F)c4)C3)CC2)cn1 : reported logD = ?
Data returned: 1.72

Data request: Entry Cc1cnc(Nc2ccc(OCC(O)CN(C)C)cc2)nc1Nc1ccccc1 (centres undefined) : reported logD = ?
Data returned: 2

Data request: Entry C[C@@H](C(=O)NCCN1CCCC1)c1ccc(OS(=O)(=O)C(F)(F)F)cc1 : reported logD = ?
Data returned: 1.64

Data request: Entry COc1ccccc1Oc1c(NS(=O)(=O)c2ccc(C(C)(C)C)cc2)nc(-c2ncccn2)nc1OCCO : reported logD = ?
Data returned: 1.03

Data request: Entry Cc1nc(C(=O)[C@@H](C)Oc2ccc(SCCCCCc3ccccc3)cc2)sc1CCCC(=O)O : reported logD = ?
Data returned: 3.58

Data request: Entry Cc1cccc(C[C@H](NC(=O)c2cc(C(C)(C)C)nn2C)C(=O)NCC#N)c1 : reported logD = ?
Data returned: 3.1

Data request: Entry CSCCC(NC(=O)c1ccccc1)c1nc2ccccc2n1Cc1ccc(C#N)cc1 (centres undefined) : reported logD = ?
Data returned: 4.24

Data request: Entry CC(C)NC[C@@H](C(=O)N1CCN(c2ncnc3c2[C@H](C)C[C@H]3O)CC1)c1ccc(Cl)cc1 : reported logD = ?
Data returned: 1.3

Data request: Entry N=C(N)N1CCc2ccccc2C1 : reported logD = ?
Data returned: -1.01

Data request: Entry C=CCNC(=O)c1cc([N+](=O)[O-])cc2c(=O)[nH]c(Nc3ccc(Cl)c(Cl)c3)nc12 : reported logD = ?
Data returned: 2.7

Data request: Entry O=S(=O)(Nc1cccnc1)c1ccccc1 : reported logD = ?
Data returned: 0.84

Data request: Entry CC(C)Cn1c(=O)n(C)c(=O)c2c(C(=O)N3CC[C@@H](O)C3)c(Cc3ccnc4ccccc34)sc21 : reported logD = ?
Data returned: 1.65

Data request: Entry COc1cc2ncnc(Nc3cccc(Cl)c3F)c2cc1CN1C[C@H](OC)C[C@@H]1C(N)=O : reported logD = ?
Data returned: 3.09

Data request: Entry CC(=O)NC[C@H]1CN(c2ccc(N3CCN(c4cnccn4)CC3)c(F)c2)C(=O)O1 : reported logD = ?
Data returned: 1.49

Data request: Entry CC(C)(c1cc(N2CCOCC2)nc(-c2cccc3[nH]ccc23)n1)S(C)(=O)=O : reported logD = ?
Data returned: 2.65

Data request: Entry Cc1cc(Nc2nc(N[C@@H](C)c3ncc(F)cn3)nc(N3CCOCC3)c2Cl)n[nH]1 : reported logD = ?
Data returned: 2.61

Data request: Entry O=c1n(CCCN2CCN(c3cccc(Cl)c3)CC2)nc2ccccn12 : reported logD = ?
Data returned: 2.67

Data request: Entry Cc1ccc(-c2cc(C(F)(F)F)n[nH]2)cc1NC(=O)c1ccc(OCc2ccccn2)cc1 : reported logD = ?
Data returned: 2.44

Data request: Entry C#CCn1c(=O)c2c(-c3cc(C#N)cn3C)n(Cc3ccnc4ccc(Cl)cc34)nc2n(CC2CC2)c1=O : reported logD = ?
Data returned: 3.96

###

Test protocol: in vitro
Experimental context: SD, HW or BN, rat, plasma
Hi there, I'd appreciate the recorded fraction unbound at 5 h for every entry that follows.
Would you mind answering with just the numeric figure?

Data request: Entry Cc1cc(Nc2nc(O[C@@H](C)c3ncc(F)cn3)ncc2Cl)[nH]n1 : reported fraction unbound at 5 h = ?
Data returned: 0.339

Data request: Entry CN(C)CCn1cc(-c2cc(C(=O)NC[C@H]3CC[C@H](CNC(=O)OC(C)(C)C)CC3)c3ccccc3n2)cn1 : reported fraction unbound at 5 h = ?
Data returned: 0.0647

Data request: Entry Cc1cc(Nc2nc(N[C@@H](C)c3ncc(F)cn3)c(C#N)nc2C)n[nH]1 : reported fraction unbound at 5 h = ?
Data returned: 0.349

Data request: Entry C[C@H]([C@H](O)c1ccc(O)cc1)N1CCC(O)(c2ccccc2)CC1 : reported fraction unbound at 5 h = ?
Data returned: 0.608

Data request: Entry CCN1CCC[C@H]1CNC(=O)c1cc(Br)cc(OC)c1OC : reported fraction unbound at 5 h = ?
Data returned: 0.701

Data request: Entry Cc1ccccc1-n1c(Cn2nc(-c3ccc(O)c(F)c3)c3c(N)ncnc32)nc2cccc(C)c2c1=O : reported fraction unbound at 5 h = ?
Data returned: 0.0313

Data request: Entry Cc1cc2c(s1)Nc1ccccc1N=C2N1CCN(C)CC1 [OLANZAPINE] : reported fraction unbound at 5 h = ?
Data returned: 0.124

Data request: Entry COc1nc(C)nc(Cl)c1N=C1NCCN1 [MOXONIDINE] : reported fraction unbound at 5 h = ?
Data returned: 0.886

Data request: Entry Cc1ccccc1-n1c(Cn2cnc3c(N)ncnc32)nc2cccc(C)c2c1=O : reported fraction unbound at 5 h = ?
Data returned: 0.24

Data request: Entry CC1CN(c2cc(=O)[nH]c(NCc3cccc4ccccc34)n2)CCO1 (centres undefined) : reported fraction unbound at 5 h = ?
Data returned: 0.024

Data request: Entry CC(C)NCC(O)COc1cccc2[nH]ccc12 (centres undefined) [PINDOLOL] : reported fraction unbound at 5 h = ?
Data returned: 0.586

Data request: Entry O=C(Nc1ccc(CN2CCNCC2)cc1-c1nc2ccccc2[nH]1)c1cnc2ccccc2n1 : reported fraction unbound at 5 h = ?
Data returned: 0.0801

Data request: Entry O=c1[nH]c2c(O)ccc([C@@H](O)CNCCc3ccc(CNCCc4ccccn4)cc3)c2s1 : reported fraction unbound at 5 h = ?
Data returned: 0.483

Data request: Entry N#Cc1cccc(-c2cc(C(F)(F)F)ccc2OCC(=O)O)c1 : reported fraction unbound at 5 h = ?
Data returned: 0.035

Data request: Entry Cc1cn([C@H]2CCCN([C@@H](C)c3ccc(C(=O)O)c(Oc4cccc(Cl)c4)c3)C2)c(=O)[nH]c1=O : reported fraction unbound at 5 h = ?
Data returned: 0.0268

Data request: Entry O=C(CN1CCN(Cc2ccn(-c3ccc(C(F)(F)F)cn3)c2)CC1)NC(c1ccc(F)cc1)c1ccc(F)cc1 : reported fraction unbound at 5 h = ?
Data returned: 0.0011

Data request: Entry CNCCCC12CCC(c3ccccc31)c1ccccc12 [MAPROTILINE] : reported fraction unbound at 5 h = ?
Data returned: 0.0784

Data request: Entry CCCc1nc2c(C)cc(-c3nc4ccccc4n3C)cc2n1Cc1ccc(-c2ccccc2C(=O)O)cc1 : reported fraction unbound at 5 h = ?
Data returned: 0.0038

Data request: Entry CC(C)N1CCN(Cc2cnc(-c3cc(-c4cccc5[nH]ccc45)cc4[nH]ncc34)o2)CC1 [NEMIRALISIB] : reported fraction unbound at 5 h = ?
Data returned: 0.0358

Data request: Entry CC(C)[C@H](C(=O)Nc1nccs1)c1ccc(Cl)cc1 : reported fraction unbound at 5 h = ?
Data returned: 0.0106

Data request: Entry O=c1[nH]c2c(O)ccc([C@@H](O)CNCCCSCCOCCc3cccc4ccccc34)c2s1 : reported fraction unbound at 5 h = ?
Data returned: 0.0082

Data request: Entry O=C(NCc1ccc(F)c(C(F)(F)F)c1)C1c2ccccc2C(=O)N1CCc1ncc(F)cn1 (centres undefined) : reported fraction unbound at 5 h = ?
Data returned: 0.129

Data request: Entry Cc1ccc(S(=O)(=O)Nc2c(C(=O)N[C@@H](C)C(C)(C)C)c(C)nn2C2CCOCC2)cc1 : reported fraction unbound at 5 h = ?
Data returned: 0.166

Data request: Entry O=C(O)[C@H](Cc1ccc(F)cc1)N1CCC(CN2CCC(Oc3ccc(Cl)c(Cl)c3)CC2)CC1 : reported fraction unbound at 5 h = ?
Data returned: 0.22

Data request: Entry CC(CN1c2ccccc2Sc2ccccc21)N(C)C (centres undefined) [PROMETHAZINE] : reported fraction unbound at 5 h = ?
Data returned: 0.0705

Data request: Entry CCOc1ccc2oc(C(=O)NC(CCSC)c3nc4ccccc4[nH]3)c(C)c2c1 (centres undefined) : reported fraction unbound at 5 h = ?
Data returned: 0.009

Data request: Entry O=C(CN1CCOCC1)Nc1ccc(-c2cccc3c(=O)cc(N4CCOCC4)oc23)cc1-c1ccccc1 : reported fraction unbound at 5 h = ?
Data returned: 0.0633

Data request: Entry CCc1cc2c(cc1N1CCC(N3CCOCC3)CC1)C(C)(C)c1[nH]c3cc(C#N)ccc3c1C2=O [ALECTINIB] : reported fraction unbound at 5 h = ?
Data returned: 0.5

Data request: Entry CC(C)C[C@H](CN)CC(=O)O [PREGABALIN] : reported fraction unbound at 5 h = ?
Data returned: 0.5

Data request: Entry CN1CCC[C@@H]1Cc1c[nH]c2ccc(Nc3ncccc3[N+](=O)[O-])cc12 : reported fraction unbound at 5 h = ?
Data returned: 0.387

Data request: Entry COc1ccc(CC(C)(C)NC[C@H](O)c2cc(O)cc3c2OCC(=O)N3)cc1 [OLODATEROL] : reported fraction unbound at 5 h = ?
Data returned: 0.443

Data request: Entry COc1cccc2c1c(NS(=O)(=O)c1ccc(Cl)s1)nn2Cc1cccc(CNC(=O)[C@H]2COCCN2)c1 : reported fraction unbound at 5 h = ?
Data returned: 0.0052

Data request: Entry O=C(O)Cc1cn(-c2ccccc2)nc1-c1ccc(Cl)cc1 [LONAZOLAC] : reported fraction unbound at 5 h = ?
Data returned: 0.0018

Data request: Entry NCCCCN(Cc1nc2ccccc2[nH]1)C1CCCc2cccnc21 (centres undefined) : reported fraction unbound at 5 h = ?
Data returned: 0.371

Data request: Entry O=C(Nc1cccc(Cl)c1)Nc1nnc(-c2ccncc2)s1 : reported fraction unbound at 5 h = ?
Data returned: 0.0046

Data request: Entry O=C(CC12CC3CC(CC(C3)C1)C2)Nc1cccc2c(=O)n(C[C@H]3CCCN3)ccc12 : reported fraction unbound at 5 h = ?
Data returned: 0.151

Data request: Entry C[S+]([O-])Cc1ccc(C(=O)Nc2cccnc2C(=O)NCC2CCC2)c2ccccc12 (centres undefined) : reported fraction unbound at 5 h = ?
Data returned: 0.0119

Data request: Entry COc1cccc2c1c(NS(=O)(=O)c1ccc(Cl)s1)nn2Cc1cccc(CNC(=O)[C@@H]2COCCN2)c1 : reported fraction unbound at 5 h = ?
Data returned: 0.0156

Data request: Entry COc1cc(C(C)C)c(Oc2cnc(N)nc2N)cc1I : reported fraction unbound at 5 h = ?
Data returned: 0.0383
